The reported numbers originate from patent US10472336B2.

target.of.assay: indoleamine 2, 3-dioxygenase (IDO1) (Homo sapiens, UniProt P14902)
Sequence (P14902 whole entry): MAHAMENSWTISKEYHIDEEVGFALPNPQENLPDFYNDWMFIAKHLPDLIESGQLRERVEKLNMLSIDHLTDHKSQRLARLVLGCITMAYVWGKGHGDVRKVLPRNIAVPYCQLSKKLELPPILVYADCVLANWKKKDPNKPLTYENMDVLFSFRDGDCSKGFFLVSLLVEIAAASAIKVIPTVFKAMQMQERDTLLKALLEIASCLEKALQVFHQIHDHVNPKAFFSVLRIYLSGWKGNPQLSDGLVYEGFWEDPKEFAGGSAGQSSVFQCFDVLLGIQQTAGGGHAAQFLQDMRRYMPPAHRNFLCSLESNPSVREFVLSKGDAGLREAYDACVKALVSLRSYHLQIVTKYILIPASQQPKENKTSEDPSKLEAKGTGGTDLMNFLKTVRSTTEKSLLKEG
assay: HeLa IDOi assay (kynurenine detection by mass spectrometry)
Format: cell-based
Parameters: human epithelial HeLa cells (CCL-2; host or cells: HeLa cells stimulated with human IFN-γ
measurement.context: IFN-γ stimulated human epithelial HeLa cells, 2 days
# EC50 per entry
experimental.endpoint: EC50 (nM)

>  <compound>
Cc1sc(Nc2cc(C(C)CC(=O)O)ccc2N(CC(C)C)CC(C)C)nc1C(F)(F)F (centres unmarked)

>  <target.of.assay>
indoleamine 2, 3-dioxygenase (IDO1) (Homo sapiens, UniProt P14902)

>  <result.value>
79.4

$$$$
>  <compound>
CC(C)CN(CC(C)C)c1ccc(C(C)CC(=O)O)cc1Nc1nc(C(F)(F)F)co1 (centres unmarked)

>  <target.of.assay>
indoleamine 2, 3-dioxygenase (IDO1) (Homo sapiens, UniProt P14902)

>  <result.value>
20

$$$$
>  <compound>
CC(C)CN(c1ccc(C(C)CC(=O)O)cc1NC1=N[C@H](c2ccccc2)CO1)C1CCCCC1 (some centres unmarked)

>  <target.of.assay>
indoleamine 2, 3-dioxygenase (IDO1) (Homo sapiens, UniProt P14902)

>  <result.value>
316

$$$$
>  <compound>
CC(C)CN(c1ccc(C(C)CC(=O)O)cc1Nc1nc2ccccc2s1)C1CCCCC1 (centres unmarked)

>  <target.of.assay>
indoleamine 2, 3-dioxygenase (IDO1) (Homo sapiens, UniProt P14902)

>  <result.value>
3.98

$$$$
>  <compound>
CC(C)CN(CC(C)C)c1ccc(C(C)CC(=O)O)cc1Nc1nc(C(C)C)cs1 (centres unmarked)

>  <target.of.assay>
indoleamine 2, 3-dioxygenase (IDO1) (Homo sapiens, UniProt P14902)

>  <result.value>
126

$$$$

* * *

target.of.assay: indoleamine 2, 3-dioxygenase (IDO1) (Homo sapiens, UniProt P14902)
assay: HeLa IDOi assay (kynurenine detection by mass spectrometry)
Assay type: cell-based
Parameters: human epithelial HeLa cells (CCL-2; host or cells: HeLa cells stimulated with human IFN-γ
measurement.context: IFN-γ stimulated human epithelial HeLa cells, 2 days
pEC50: −log10 of the molar value.
experimental.endpoint: pEC50

>  <compound>
CC(C)CN(c1ccc(C(CC(=O)O)C(F)(F)F)cc1Nc1nc(Cl)ns1)C1CCCCC1 (stereo not shown)

>  <result.value>
8.20

$$$$
>  <compound>
CC(C)CN(c1ccc(C(C)CC(=O)O)cc1Nc1nc2ccccc2[nH]1)C1CCCCC1 (stereo not shown)

>  <result.value>
8.60

$$$$
>  <compound>
CCOC(=O)c1ncc(Nc2cc(C(C)CC(=O)O)ccc2N(CC(C)C)CC(C)C)s1 (stereo not shown)

>  <result.value>
7.60

$$$$
>  <compound>
CCCCc1cc(C(C)CC(=O)O)cc(Nc2nc(Cl)ns2)c1OCCC (stereo not shown)

>  <result.value>
6.80

$$$$
